B1: H2-Kb / Ed46 (parent complex)
chain 1: AQSVTQPDARVTVSEGASLQLRCKYSYFGTPYLFWYVQYPRQGLQLLLKYYPGDPVVQGVNGFEAEFSKSNSSFHLRKASVHWSDWAVYFCAVGRTGGYKVVFGSGTRLLVSP
chain 2: DSGVVQSPRHIIKEKGGRSVLTCIPISGHSNVVWYQQTLGKELKFLIQHYEKVERDKGFLPSRFSVQQFDDYHSEMNMSALELEDSAMYFCASSPRHSDYTFGSGTRLLVI
chain 3: not shown
chain 4: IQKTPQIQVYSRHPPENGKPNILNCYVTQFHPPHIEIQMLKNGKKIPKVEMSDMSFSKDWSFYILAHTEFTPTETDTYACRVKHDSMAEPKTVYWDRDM
chain 5: SIINFEKL

# Variants of: B1
# assayProtocol: % of reporter cells activated (NFAT-GFP), raw; also: test concentration or dose not given here
recordedEndpoint: ratio to parent
Give only the figure.

mutations	ratio to parent
chain 5 L8M	1.08
chain 5 K7I	0.2
chain 5 F5R	1.18
chain 5 L8I	1.07
chain 5 E6T	0.0683
chain 5 K7W	0.628

Query: Entry chain 5 I3W has what ratio to parent?
Result: 0.64

Query: What does the record list as ratio to parent for chain 5 F5I ?
Result: 1.02

Query: Which ratio to parent is reported for this variant? chain 5 K7E
Result: 0.00395

Query: // ratio to parent lookup, key: chain 5 F5P
Result: 1.17

Query: # query: ratio to parent of entry chain 5 I2R
Result: 1.11

Query: Quick check: ratio to parent of chain 5 K7S ?
Result: 0.689

Query: Endpoint output: ratio to parent of chain 5 E6I . Value?
Result: 0.0119

Query: State the recorded ratio to parent for this entry: chain 5 S1T
Result: 0.278

Query: What does the data say about its ratio to parent? Entry: chain 5 N4C
Result: 0.0356

Query: Please look up its ratio to parent: chain 5 N4R
Result: 0.317
